Tested on: HEK-293T
Assay: Multiplex assay against HEK293T
Type: toxicity, cell-based
Settings: human, 48 h, 1 µM, compound concentration 1 uM, replicate 1
Collected Population Normal (%) values appear next to each entry.
experimental-readout: Population Normal (%)

>>> quantitative_result("CC[C@H](C)C(=O)O[C@H]1C[C@@H](C)C=C2C=C[C@H](C)[C@H](CC[C@@H]3C[C@@H](O)CC(=O)O3)[C@H]21")
84
>>> quantitative_result("CN(C)C(=O)N[C@H]1CC[C@H](CCN2CCN(c3cccc(Cl)c3Cl)CC2)CC1.Cl [CARIPRAZINE HYDROCHLORIDE]")
92
>>> quantitative_result("Cc1[nH]c(/C=C2\\C(=O)Nc3ccc(S(=O)(=O)N(C)c4cccc(Cl)c4)cc32)c(C)c1C(=O)N1CCN(C)CC1")
80
>>> quantitative_result("CN1CCN(CCOc2cc(OC3CCOCC3)c3c(Nc4c(Cl)ccc5c4OCO5)ncnc3c2)CC1")
81
>>> quantitative_result("CC(C)NCC(O)COc1ccc(CCOCC2CC2)cc1.Cl (centres undefined) [BETAXOLOL HYDROCHLORIDE]")
94
>>> quantitative_result("COc1cccc([C@@H](C)NCCCc2ccccc2Cl)c1.Cl [TECALCET HYDROCHLORIDE]")
94
>>> quantitative_result("OC1(c2ccc(Cl)cc2)CCN(Cc2c[nH]c3ccccc23)CC1")
86
>>> quantitative_result("C=CC(=O)Nc1ccc2ncnc(Nc3ccc(OCc4cccc(F)c4)c(Cl)c3)c2c1.Cc1ccc(S(=O)(=O)O)cc1")
86
>>> quantitative_result("COc1cc(-n2cnc3cc(-c4ccc(Cl)cc4)sc3c2=O)ccc1OCCN1CCCC1")
90

Hey, just so you know, these numbers are from ChEMBL document CHEMBL4689842.
